- measured_on: ncOGT (Homo sapiens, UniProt O15294)
- Sequence (O15294 1-1046): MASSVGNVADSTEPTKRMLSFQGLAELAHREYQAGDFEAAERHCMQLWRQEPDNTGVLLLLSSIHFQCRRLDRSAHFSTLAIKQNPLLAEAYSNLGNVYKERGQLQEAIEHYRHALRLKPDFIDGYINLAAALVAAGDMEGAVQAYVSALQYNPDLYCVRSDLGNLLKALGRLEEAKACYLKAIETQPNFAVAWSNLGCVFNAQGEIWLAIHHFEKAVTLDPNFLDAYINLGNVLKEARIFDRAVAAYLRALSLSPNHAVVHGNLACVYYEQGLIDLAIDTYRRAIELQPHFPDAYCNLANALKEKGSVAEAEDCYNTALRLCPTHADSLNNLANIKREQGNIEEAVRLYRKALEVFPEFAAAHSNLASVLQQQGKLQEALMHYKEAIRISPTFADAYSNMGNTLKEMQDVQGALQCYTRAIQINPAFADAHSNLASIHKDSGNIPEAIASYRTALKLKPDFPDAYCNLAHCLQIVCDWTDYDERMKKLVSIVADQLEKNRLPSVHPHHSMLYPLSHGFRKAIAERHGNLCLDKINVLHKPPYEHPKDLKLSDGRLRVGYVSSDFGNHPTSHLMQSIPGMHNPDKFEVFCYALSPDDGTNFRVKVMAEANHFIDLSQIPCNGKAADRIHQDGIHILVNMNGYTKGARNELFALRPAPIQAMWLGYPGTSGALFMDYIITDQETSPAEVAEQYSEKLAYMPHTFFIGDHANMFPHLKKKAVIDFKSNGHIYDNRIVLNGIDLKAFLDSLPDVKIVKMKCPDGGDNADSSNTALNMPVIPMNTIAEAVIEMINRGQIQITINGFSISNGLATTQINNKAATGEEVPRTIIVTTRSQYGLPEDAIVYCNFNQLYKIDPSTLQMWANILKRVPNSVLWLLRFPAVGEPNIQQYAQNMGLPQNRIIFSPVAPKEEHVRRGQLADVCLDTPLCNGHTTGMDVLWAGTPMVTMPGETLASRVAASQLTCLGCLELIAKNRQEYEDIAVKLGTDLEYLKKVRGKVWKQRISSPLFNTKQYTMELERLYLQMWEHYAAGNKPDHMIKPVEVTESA
measured_parameter: IC50 (µM)
The reply should contain only the number, in µM.

Which IC50 is listed for COc1ccccc1[C@@H](NS(=O)(=O)c1ccc2[nH]c(=O)ccc2c1)C(=O)N(Cc1ccco1)Cc1cccs1 ? 3
